Collected normalized growth values appear next to each entry.
- RUN DESCRIPTION: chemical genetic growth profiling, strain panel (AID 1159580);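 also: tested at 20 µM; growth read once vehicle control cultures reached saturation at 30 °C; 1 = growth at the plate median or of vehicle wells; lower values mean less growth of the strain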
- MEASUREMENT PARAMETERS: S. cerevisiae deletion strains, growth OD, locus YPR167C, strain met16, hits give low values
In all, about 5,500 compounds went through this assay and about 2,000 (36%) were called active. Roughly 18% stayed inconclusive and do not appear here. The list shows a part of the results.

As a guide, the following entries are already answered.
MOLECULE	normalized growth
CCOC(=O)NC1=C(C2CC2)C(=O)C(NC(=O)OCC)=C(C2CC2)C1=O	1 (inactive)
C[C@@H]1CC[C@@]2(OC1)O[C@H]1CC3C4CC[C@H]5C[C@@H](O)CC[C@]5(C)C4CC[C@]3(C)[C@H]1[C@@H]2C (stereo partly specified)	0.985 (inactive)

Suppose we examine the molecule `COc1ccc(-c2cc(=O)c3c(O)cc(O[C@H]4O[C@H](CO[C@@H]5O[C@@H](C)[C@H](O)[C@@H](O)[C@H]5O)[C@@H](O)[C@H](O)[C@H]4O)cc3o2)cc1` ; what normalized growth value has been reported? 1.01 (inactive)

Suppose we examine the molecule `COc1cc(O)c2c(=O)c(O)c(-c3ccc(O)c(O)c3)oc2c1` ; what normalized growth value has been reported? 1 (inactive)

Suppose we examine the molecule `CCCCOc1cc(C(=O)NCCN(CC)CC)c2ccccc2n1` ; what normalized growth value has been reported? 0.986 (inactive)

Suppose we examine the molecule `O=C(O)C1=C[C@@H](O)[C@@H](O)[C@H](O)C1` ; what normalized growth value has been reported? 0.999 (inactive)

Suppose we examine the molecule CC(=O)OC1CN2CCC1CC2 (stereo unspecified) ; what normalized growth value has been reported? 0.984 (inactive)

###

- RUN DESCRIPTION: chemical genetic growth profiling, strain panel (AID 1159580);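 also: tested at 20 µM; growth read once vehicle control cultures reached saturation at 30 °C; 1 = growth at the plate median or of vehicle wells; lower values mean less growth of the strain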
- MEASUREMENT PARAMETERS: S. cerevisiae deletion strains, growth OD, locus YNL183C, strain NPR1, hits give low values
The whole screen tested about 5,500 compounds, of which about 2,000 (36%) were called active. Not shown: some 18% with an inconclusive outcome. This is one part of the list.
Collected normalized growth values appear next to each entry.

COMPOUND	READOUT VALUE
COC(=O)c1c(C)cc(OC)cc1O	0.979 (inactive)

Suppose we examine the compound `CC(C)[N+](C)(CCC(C(N)=O)(c1ccccc1)c1ccccc1)C(C)C` ; what normalized growth value has been reported? 0.964 (inactive)

Suppose we examine the compound C[C@@H]1CC[C@@]2(OC1)OC1CC3C4CC=C5C[C@@H](O)CC[C@]5(C)C4CC[C@]3(C)C1[C@@H]2C (stereo partly drawn) ; what normalized growth value has been reported? 0.964 (inactive)

Suppose we examine the compound NC(CSCSCC(N)C(=O)O)C(=O)O (stereo not drawn) ; what normalized growth value has been reported? 0.983 (inactive)

Suppose we examine the compound `CC(=O)OCC1=C(C(=O)O)N2C(=O)[C@@H](NC(=O)Cc3cccs3)[C@H]2SC1` ; what normalized growth value has been reported? 0.919 (inactive)

Suppose we examine the compound `O=C1Nc2ccccc2/C1=C/c1ccc(C(F)(F)F)cc1Cl` ; what normalized growth value has been reported? 0.881 (inactive)

Suppose we examine the compound `CCOC(=O)N/N=C\c1cc(Cl)cc(Cl)c1O` ; what normalized growth value has been reported? 0.556 (active)

Suppose we examine the compound N#Cc1nn(-c2c(Cl)cc(C(F)(F)F)cc2Cl)c(N)c1S(=O)C(F)(F)F (stereo not drawn) ; what normalized growth value has been reported? 0.951 (inactive)

Suppose we examine the compound CCN[C@@H]1C[C@H](N)[C@@H](O[C@H]2OC(CN)=CC[C@H]2N)[C@H](O)[C@H]1OC1OC[C@](C)(O)[C@H](NC)[C@H]1O (stereo partly drawn) ; what normalized growth value has been reported? 0.935 (inactive)

Suppose we examine the compound NC(=O)NCCCC(N)C(=O)O (stereo not drawn) ; what normalized growth value has been reported? 0.963 (inactive)
